TARGET_OR_TEST_SYSTEM: HLA-DR molecule DRB4*0101 (human)
PROCEDURE_DETAILS: competition vs 125I probe, purified HLA
Below, each entry is listed with its recorded IC50.
Please don't drop the unit; write it after the number.

Worked set:
- BINDER: "GLRSLGTLLRALGAQ [EPO 101 analog GLRSLGTLLRALGAQ]"
  ASSAY_VALUE: "0.473 µM"
- BINDER: "GLRSLTTLNRALGAQ [EPO 101 analog GLRSLTTLNRALGAQ]"
  ASSAY_VALUE: "0.167 µM"

Continue with the binder presented below.
Query :: Value lookup for IC50; key = GLRSLTTLPRALGAQ [EPO 101 analog GLRSLTTLPRALGAQ]
Result :: 0.112 µM
